system: Vero E6 infected with SARS-CoV-2; test: SARS-CoV-2 infection rate relative to infected DMSO; higher = more infection, active = 60 or less; conditions: 24 h
ASSAY ENDPOINT: SARS-CoV-2 infection rate (%)
A number alone suffices; assume %.

The cases that follow already have their SARS-CoV-2 infection rate on record.
| COMPOUND | ASSAY ENDPOINT | MEASURED |
| --- | --- | --- |
| CN1CCN(c2c(F)cc3c(=O)c(C(=O)O)cn4c3c2SCC4)CC1 [rufloxacin] (10 µM) | SARS-CoV-2 infection rate | 103 |
| O=c1cc[nH]c(=O)[nH]1 [uracil] (10 µM) | SARS-CoV-2 infection rate | 108 |
| Cc1ccc(S(N)(=O)=O)cc1 [para-toluenesulfonamide] (10 µM) | SARS-CoV-2 infection rate | 106 |
| O=C(c1ccc(F)cc1)C1CCN(CCn2c(=O)[nH]c3ccccc3c2=O)CC1 [ketanserin] (10 µM) | SARS-CoV-2 infection rate | 106 |
| NC(N)=Nc1nc(CSCC/C(N)=N/S(N)(=O)=O)cs1 [Famotidine] (10 µM) | SARS-CoV-2 infection rate | 106 |

Item NC(=O)c1ncn([C@@H]2O[C@H](CO)[C@@H](O)[C@H]2O)n1 [ribavirin] (10 µM) : provide SARS-CoV-2 infection rate 97.5

Item CCCNC(C)C(=O)Nc1ccccc1C (centres undefined) [prilocaine] (10 µM) : provide SARS-CoV-2 infection rate 112

Item Cc1c(I)c(=O)n(-c2ccccc2)n1C [iodoantipyrine] (10 µM) : provide SARS-CoV-2 infection rate 118

Item CCC(=O)NCC[C@@H]1CCc2ccc3c(c21)CCO3 [ramelteon] (10 µM) : provide SARS-CoV-2 infection rate 114
